# ASSAYED TARGET: Endothelial lipase (EL) (Homo sapiens (Human), UniProt Q9Y5X9)
# Sequence (Q9Y5X9 21-500): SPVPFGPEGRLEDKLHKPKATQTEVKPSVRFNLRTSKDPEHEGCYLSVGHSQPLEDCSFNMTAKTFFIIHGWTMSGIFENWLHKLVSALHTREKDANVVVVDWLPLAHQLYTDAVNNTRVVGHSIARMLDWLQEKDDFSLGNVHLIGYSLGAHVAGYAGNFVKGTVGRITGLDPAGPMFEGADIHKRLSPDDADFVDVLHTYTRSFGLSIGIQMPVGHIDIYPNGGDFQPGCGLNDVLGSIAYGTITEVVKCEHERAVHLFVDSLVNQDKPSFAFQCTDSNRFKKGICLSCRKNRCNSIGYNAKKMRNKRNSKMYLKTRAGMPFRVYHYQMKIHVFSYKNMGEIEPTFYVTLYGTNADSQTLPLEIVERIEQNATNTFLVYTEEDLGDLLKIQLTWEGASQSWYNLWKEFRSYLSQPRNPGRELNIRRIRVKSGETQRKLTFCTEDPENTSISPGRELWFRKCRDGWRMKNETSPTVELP
# ASSAY EXPLANATION: Endothelial lipase (EL) enzymatic assay with fluorescent substrate A10070 in DMPG vesicles
# Assay type: biochemical
So basically: is IC50 under 0.01 µM? Then yes (1). Not under? Then no (0).

Worked set:
O=C(CNC(=O)C(c1nc2ccc(-c3ccc(F)nc3)cc2s1)S(=O)(=O)c1ccccc1)NC1CC1 (stereo not shown)    no (0)
COCCS(=O)(=O)C(C(=O)NCC(=O)NC1CC1)c1nc2cc(-c3cccc(C(=O)N4CCOCC4)c3)ccc2s1 (stereo not shown)    yes (1)
Cc1cc(-c2cc3sc(C(C(=O)NCC(=O)NC4CC4)S(=O)(=O)C(C)C)nc3cc2C)cnn1 (stereo not shown)    no (0)
COC(=O)N(C)c1cccc(-c2cc3sc(C(C(=O)NCC(=O)NC4CC4)S(C)(=O)=O)nc3cc2F)c1 (stereo not shown)    yes (1)
COCCS(=O)(=O)C(C(=O)NCC(=O)NC1CC1)c1nc2c(F)cc(-c3ccc4[nH]c(=O)ccc4c3)cc2s1 (stereo not shown)    no (0)
Cc1cc2nc(C(C(=O)NCC(=O)NC3CC3)S(=O)(=O)C(C)C)sc2cc1-c1ccc(C(F)(F)F)nc1 (stereo not shown)    no (0)

Does this compound meet the criterion IC50 < 0.01 µM? COCCOC(=O)Nc1ccc(-c2cc3sc(C(C(=O)NCC(=O)NC4CC4)S(C)(=O)=O)nc3cc2F)cn1 (stereo not shown)
no (0)

---

# ASSAYED TARGET: UniProtKB Q9Y5X9
# ASSAY EXPLANATION: Endothelial lipase (EL) enzymatic assay with fluorescent substrate A10070 in DMPG vesicles
# Assay type: biochemical
Each entry below lists one item and its recorded pIC50 value.
In plain terms, pIC50 is the concentration in mol/L turned into minus its base-10 logarithm.

# example entries with known answers
CS(=O)(=O)C(C(=O)NCC(=O)NC1CC1)c1nc2cc(F)c(-c3cccc(Cl)c3)cc2s1 (stereo not shown)    8.52
COCCS(=O)(=O)C(C(=O)NCC(=O)NC1CC1)c1nc2cc(-c3ccc(-n4cnnn4)cc3)c(F)cc2s1 (stereo not shown)    7.28
COCCS(=O)(=O)C(C(=O)NCC(=O)NCC1CC1)c1nc2cc(-c3ccc(F)nc3)ccc2s1 (stereo not shown)    7.23

# ---- query molecule ----
// lookup pIC50 for CS(=O)(=O)C(C(=O)NCC(=O)NC1CC1)c1nc2cc(-c3ccc(F)nc3)c(F)cc2s1 (stereo not shown)
8.15

---

# ASSAYED TARGET: Endothelial lipase (EL) (Homo sapiens (Human))
# ASSAY EXPLANATION: Endothelial lipase (EL) enzymatic assay with fluorescent substrate A10070 in DMPG vesicles
# Type: biochemical
# pIC50 annotations
Just so you know, pIC50 here is -log10 of the concentration in molar units; reply with that number alone.

See these solved cases before continuing.
COCCS(=O)(=O)C(C(=O)NCC(=O)NC1CC1)c1nc2cc(F)c(-c3ccc(-n4cccn4)cc3)cc2s1 (stereo not drawn)    8.70
Cc1ccc(-c2cc3sc(C(C(=O)NCC(=O)NC4CC4)S(=O)(=O)C(C)C)nc3cc2C)cn1 (stereo not drawn)    7.82
COCCS(=O)(=O)C(C(=O)NCC(=O)NC1CC1)c1nc2ccc(-c3cc(C)nn3C)cc2s1 (stereo not drawn)    8.40

// switching to the query compound
Give the measured pIC50 of CS(=O)(=O)C(C(=O)NCC(=O)NC1CC1)c1nc2cc(F)c(-c3ccc(C(N)=O)cc3)cc2s1 (stereo not drawn) .
8.40

---

# ASSAYED TARGET: UniProt Q9Y5X9
# ASSAY EXPLANATION: Endothelial lipase (EL) enzymatic assay with fluorescent substrate A10070 in DMPG vesicles
# Format: biochemical
Recorded IC50 for the following compounds
Give the quantity in nM, number only.

Cc1cc(-c2cc3sc(C(C(=O)NCC(=O)NC4CC4)S(=O)(=O)C(C)C)nc3cc2C)ccn1 (stereo not shown) [Example 255]    5
CC(C)S(=O)(=O)C(C(=O)NCC(=O)NC1CC1)c1nc2cc(F)c(-c3cnc(C4CC4)nc3)cc2s1 (stereo not shown) [Example 243]    33
O=C(CNC(=O)C(c1nc2cc(F)c(-c3ccc(F)nc3)cc2s1)S(=O)(=O)N1CCOCC1)NC1CC1 (stereo not shown) [Example 486]    48

Give the measured IC50 of CN(C)S(=O)(=O)C(C(=O)NCC(=O)NC1CC1)c1nc2cc(F)c(-c3cccc(-n4cccn4)c3)cc2s1 (stereo not shown) [Example 506] .
52

What IC50 value was documented for this compound, O=C(CNC(=O)C(c1nc2cc(-c3ccc(F)nc3)ccc2s1)S(=O)(=O)Cc1ccccc1)NC1CC1 (stereo not shown) [Example 14] ?
23

Could you tell me which IC50 is on file for CCOc1ccc(-c2ccc3sc(C(C(=O)NCC(=O)NC4CC4)S(=O)(=O)CCOC)nc3c2)cn1 (stereo not shown) [Example 69] ?
23

Record request: IC50 value, item COCCN(C)C(=O)c1ccc(-c2ccc3nc(C(C(=O)NCC(=O)NC4CC4)S(=O)(=O)CCOC)sc3c2)cc1F (stereo not shown) [Example 568]
9

---

# ASSAYED TARGET: UniProtKB Q9Y5X9
# ASSAY EXPLANATION: Endothelial lipase (EL) enzymatic assay with fluorescent substrate A10070 in DMPG vesicles
# Type: biochemical
READOUT LABEL: IC50 (µM)
Express it in µM; write the number only.

Study these solved cases before continuing.
CS(=O)(=O)C(C(=O)NCC(=O)NC1CC1)c1nc2cc(F)c(-c3ccnc(C(F)(F)F)c3)cc2s1 (stereo not drawn)    0.015
Cc1ncc(-c2cc(F)c3nc(C(C(=O)NCC(=O)NC4CC4)S(=O)(=O)c4ccc(F)cc4)sc3c2)cn1 (stereo not drawn)    0.023
COCCS(=O)(=O)C(C(=O)NCC(=O)NC1CC1)c1nc2cc(F)c(-c3ccc(NC(=O)OC)cc3C)cc2s1 (stereo not drawn)    0.008
COCCS(=O)(=O)C(C(=O)NCC(=O)NC1CC1)c1nc2cc(F)c(-c3ccc(-c4nnnn4C)cc3)cc2s1 (stereo not drawn)    0.067
CS(=O)(=O)C(C(=O)NCC(=O)NC1CC1)c1nc2cc(F)c(-c3cncc(F)c3)cc2s1 (stereo not drawn)    0.023
COCCS(=O)(=O)C(C(=O)NCC(=O)NC1CC1)c1nc2cc(F)c(-c3ccc4[nH]c(=O)ccc4c3)cc2s1 (stereo not drawn)    0.002

Query (molecule): O=C(CNC(=O)C(c1nc2ccc(-c3ccc(F)nc3)cc2s1)S(=O)(=O)Cc1ccccc1F)NC1CC1 (stereo not drawn) ; field requested: IC50
0.253

Looking for the measured IC50 of COCCS(=O)(=O)C(C(=O)NCC(=O)NC1CC1)c1nc2cc(-c3cccc(-c4nnn[nH]4)c3)c(F)cc2s1 (stereo not drawn) , can you help?
0.145

GET /values?readout=IC50&item= COCCS(=O)(=O)C(C(=O)NCC(=O)NC1CC1)c1nc2ccc(-c3cnn(CC(C)(C)O)c3)cc2s1 (stereo not drawn)
0.031

What IC50 value was documented for this molecule, COCCS(=O)(=O)C(C(=O)NCC(=O)NC1CC1)c1nc2ccc(-c3cnnc(C)c3)cc2s1 (stereo not drawn) ?
0.031

Need IC50, item CC(=O)N(C)c1ccc(-c2ccc3nc(C(C(=O)NCC(=O)NC4CC4)S(=O)(=O)CCC(F)(F)F)sc3c2)cc1 (stereo not drawn)
0.054

Quick one: IC50 of COCCS(=O)(=O)C(C(=O)NCC(=O)NC1CC1)c1nc2ccc(-c3ccc(C4CC4)nc3)cc2s1 (stereo not drawn) ?
0.125

What value of measured IC50 is listed for N#CCCNC(=O)c1ccc(-c2cc3sc(C(C(=O)NCC(=O)NC4CC4)S(=O)(=O)CCC(F)(F)F)nc3cc2F)cc1 (stereo not drawn) ?
0.003

For CS(=O)(=O)C(C(=O)NCC(=O)NC1CC1)c1nc2cc(OC(F)F)c(-c3ccc(F)nc3)cc2s1 (stereo not drawn) , what is its reported IC50?
0.018

Fill blank: measured IC50 of the molecule COCCS(=O)(=O)C(C(=O)NCC(=O)NC1CC1)c1nc2cc(C)c(-c3cnc(C)nc3)cc2s1 (stereo not drawn) is ____.
0.035

---

# IC50 annotations
# ASSAYED TARGET: Endothelial lipase (EL) (Homo sapiens (Human))
# ASSAY EXPLANATION: Endothelial lipase (EL) enzymatic assay with fluorescent substrate A10070 in DMPG vesicles
# Format: biochemical
Numeric answer only, unit nM assumed.

Some solved cases for reference:
NC(=O)Nc1ccc(-c2cc3sc(C(C(=O)NCC(=O)NC4CC4)S(=O)(=O)CCC(F)(F)F)nc3cc2F)cc1 (stereo not shown)    5
COCCS(=O)(=O)C(C(=O)NCC(=O)NC1CC1)c1nc2ccc(-c3ccc(NC(=O)OC)cc3)cc2s1 (stereo not shown)    8
O=C(CNC(=O)C(c1nc2ccc(-c3cccnc3F)cc2s1)S(=O)(=O)N1CCOCC1)NC1CC1 (stereo not shown)    173

Would you mind telling me what IC50 value was observed for Cc1cc(-c2cc3sc(C(C(=O)NCC(=O)NC4CC4)S(=O)(=O)N4CCOCC4)nc3cc2F)cnn1 (stereo not shown) ?
93

IC50 lookup needed for Cc1cc2nc(C(C(=O)NCC(=O)NC3CC3)S(=O)(=O)C(C)C)sc2cc1-c1ccc(C(=O)N2CCC2)cc1 (stereo not shown) , thanks.
3

I have this molecule here, COCCS(=O)(=O)C(C(=O)NCC(=O)NCCOC(C)C)c1nc2cc(-c3cnc(C)nc3)c(F)cc2s1 (stereo not shown) , and I need its recorded IC50.
55

Field request: IC50 | item: Cc1ncc(-c2cc(F)c3nc(C(C(=O)NCC(=O)NC4CC4)S(=O)(=O)N(C)C)sc3c2)cn1 (stereo not shown)
82

Where do these numbers come from? They come from patent US10173991B2.
